Assay: Pharmacokinetics of clopidogrel and its metabolites with and without ritonavir
Assay type: in vivo, human
Conditions: geometric mean ratio (90% CI)
C max, clopidogrel and ritonavir phase to clopidogrel phase ratio values, listed per item
measuredProperty: C max, clopidogrel and ritonavir phase to clopidogrel phase ratio

| compound | measured |
| --- | --- |
| O=C(O)[C@H](c1ccccc1Cl)N1CCc2sccc2C1 [Clopidogrel carboxylic acid, clopidogrel carboxylic acid] | 1.01 (0.89–1.15) |
| COC(=O)[C@H](c1ccccc1Cl)N1CCc2sccc2C1 [Clopidogrel, clopidogrel, reference compound] | 0.79 (0.40–1.57) |
| COC(=O)[C@H](c1ccccc1Cl)N1CC[C@@H](S)/C(=C\C(=O)O)C1 [Clopidogrel active metabolite] | 0.52 (0.41–0.65); P = 0.0003 |
| O=C(O)[C@H]1O[C@@H](OC(=O)[C@H](c2ccccc2Cl)N2CCc3sccc3C2)[C@H](O)[C@@H](O)[C@@H]1O [Clopidogrel acyl‐β‐D‐glucuronide, clopidogrel acyl‐β‐D‐glucuronide] | 1.13 (0.86–1.47) |
